Molecular target: T1, human IL-25 (human, UniProt Q9H293 33-177)
T1 construct: ELISA used bought R&D systems #1258-IL-025/CF; Treated as one molecule; also called IL-17E; human IL-17E
T1 sequence (looked up): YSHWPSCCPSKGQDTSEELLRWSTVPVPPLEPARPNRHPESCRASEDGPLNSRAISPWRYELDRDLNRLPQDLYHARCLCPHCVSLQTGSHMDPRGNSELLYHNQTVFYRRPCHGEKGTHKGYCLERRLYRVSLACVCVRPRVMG
Test: SPR, Biacore T200; antibody captured by anti-human Fc, IL-25 as analyte
Overview of recorded Kd for various binders
Write it as a number; the unit nM goes unstated.

Study these solved cases before continuing.
1) murine anti-IL-25 monoclonal antibody 18H3 (antibody, V domains shown, also called parental antibody; parental murine mAb) VH: QVTLKESGPGILQPSQTLSLTCSFSGFSLSTSGMGLGWIRQPSGKGLEWLAHIWWDDVKHYKPALKSRLTISKDISSSQVFLTIASVDTADTATYYCARMGQLHYYGYDYAMDYWGQGTSVTVSS VL: QIVLTQSPAIMSASPGEKVTISCSASSSVSYMYWYQQKPGSSPKPWIYRTSNLASGVPARFSGSGSGTSYSLTISSMEAEDAATYYCQLYHSYPPTWTFGGGTKLEIK: 0.34
2) VH1-1 + VL1-2 (humanized anti-IL-25 antibody formed by VH1-1 and VL1-2) (antibody, V domains shown, Captured by anti-human Fc gamma antibody in SPR) VH: QVTLKESGPTLVKPTQTLTLTCTFSGFSLSTSGMGLGWIRQPPGKALEWLAHIWWDDVKHYKPALKSRLTITKDTSKNQVVLTMTNVDPVDTATYYCARMGQLHYYGYDYAMDYWGQGTLVTVSS VL: EIVLTQSPATLSASPGERVTISCSASSSVSYMYWYQQKPGQAPRPLIYRTSNLASGVPARFSGSGSGTDYTLTISSMEPEDFATYYCQLYHSYPPTWTFGQGTKLEIK: 0.267

Task: Field request: Kd | item: VH2-1 + VL1-2 (humanized anti-IL-25 antibody formed by VH2-1 and VL1-2) (antibody, V domains shown) VH: QVTLRESGPALLKPTQTLTLTCTFSGFSLSTSGMGLGWIRQPPGKALEWLAHIWWDDVKHYKPALKSRLTISKDTSKNQVVLTITNVDPVDTATYYCARMGQLHYYGYDYAMDYWGQGTLVTVSS VL: EIVLTQSPATLSASPGERVTISCSASSSVSYMYWYQQKPGQAPRPLIYRTSNLASGVPARFSGSGSGTDYTLTISSMEPEDFATYYCQLYHSYPPTWTFGQGTKLEIK
Result: 0.275

Where do the numbers come from? From patent US20210332123A1.
